- tested on: T1, human serum albumin (human, UniProt P02768 25-609)
- T1 construct: also called HSA; plasma protein (PPB)
- T1 sequence (P02768 25-609 limits assumed): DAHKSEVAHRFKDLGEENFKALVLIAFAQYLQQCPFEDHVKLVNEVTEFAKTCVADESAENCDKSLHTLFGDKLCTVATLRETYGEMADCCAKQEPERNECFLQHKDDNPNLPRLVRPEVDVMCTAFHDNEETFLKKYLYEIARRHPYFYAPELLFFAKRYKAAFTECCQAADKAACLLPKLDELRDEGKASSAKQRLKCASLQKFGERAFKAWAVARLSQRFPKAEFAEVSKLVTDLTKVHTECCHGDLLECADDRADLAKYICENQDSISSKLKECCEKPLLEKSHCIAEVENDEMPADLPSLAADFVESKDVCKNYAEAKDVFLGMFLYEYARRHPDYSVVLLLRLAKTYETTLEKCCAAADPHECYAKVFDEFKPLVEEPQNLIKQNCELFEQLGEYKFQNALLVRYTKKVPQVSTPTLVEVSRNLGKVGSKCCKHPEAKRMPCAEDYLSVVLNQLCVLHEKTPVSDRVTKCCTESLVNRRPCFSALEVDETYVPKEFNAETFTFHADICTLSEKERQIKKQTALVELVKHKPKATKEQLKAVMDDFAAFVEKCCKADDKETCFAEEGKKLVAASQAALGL
- test summary: fluorescence polarisation, change of polarisation value with human serum albumin
Bridges are numbered along the chain shown (N, C = ends).
endpoint: PPB (% change in polarisation value) (%)
The response must be a number in % with no trailing unit.

Study these solved cases before continuing.
>>> quantitative_readout("Ac-AGSCYCSGPPRFECWCYETEGTGGGK-NH2 (disulfide 6-14, 4-16; not fully specified (residue 26); also: DY-651 dye attached, site not given here) [Compound 5 ([Peptide 1]-DY-651 conjugate)]")
49
>>> quantitative_readout("Ac-AGSCYCSGPPRFECWCYETEGTGGGK-NH2 (disulfide 6-14, 4-16; not fully specified (residue 26); also: DY-631 dye attached, site not given here) [Compound 2 ([Peptide 1]-DY-631 conjugate)]")
33
>>> quantitative_readout("Ac-AGSCYCSGPPRFECWCYETEGTGGGK-NH2 (disulfide 6-14, 4-16; not fully specified (residue 26); also: DY-630 dye attached, site not given here, Printed in three-letter code, turned into one-letter code here) [Compound 1 ([Peptide 1]-DY-630 conjugate)]")
36
>>> quantitative_readout("Ac-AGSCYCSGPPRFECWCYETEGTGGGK-NH2 (disulfide 6-14, 4-16; not fully specified (residue 26); also: DY-652 dye attached, site not given here) [Compound 6 ([Peptide 1]-DY-652 conjugate)]")
46

PPB (% change in polarisation value) for Ac-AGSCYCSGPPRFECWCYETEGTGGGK-NH2 (disulfide 6-14, 4-16; not fully specified (residue 26); also: DY-650 dye attached, site not given here) [Compound 4 ([Peptide 1]-DY-650 conjugate)] is 55
